- SYSTEM TESTED: B. cenocepacia J2315 glutamate racemase (BcGR) (Burkholderia cenocepacia, UniProt B4EEM8)
- Sequence (B4EEM8 1-285): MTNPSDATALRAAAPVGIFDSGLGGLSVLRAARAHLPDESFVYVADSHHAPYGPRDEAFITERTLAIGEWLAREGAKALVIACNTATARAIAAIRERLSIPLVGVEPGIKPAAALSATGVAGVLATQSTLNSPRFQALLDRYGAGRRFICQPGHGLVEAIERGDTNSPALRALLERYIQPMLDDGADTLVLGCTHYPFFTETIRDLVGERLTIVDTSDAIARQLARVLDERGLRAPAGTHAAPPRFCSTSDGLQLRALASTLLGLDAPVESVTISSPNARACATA
- PROTOCOL NOTES: BcGR enzymatic activity inhibition, spectrophotometric coupled assay (L-glutamate dehydrogenase/diaphorase)
OBSERVED PROPERTY: pIC50
In plain terms, pIC50 is the concentration in mol/L turned into minus its base-10 logarithm.

Look up pIC50: O=C(O)c1cccc(C(=O)O)n1 [dipicolinic acid]
3.82
